tested on: M14 melanoma; assay: NCI-60 one-dose screen, 48 h (100 = growth as untreated, 0 = no growth, -100 = all killed); details: 10 µM unless noted
The panel holds about 83,000 compounds, 20% with a hit somewhere; the sample as a whole holds those more often.
Measured growth accompanies every entry in the list below.
Property name: growth (%)

1) O=C(c1ccccc1)c1ccc2nc(-c3ccc(F)cc3)[nH]c2c1 ... 54.4
2) COc1ccc2c(c1)c(-c1cc3nc(-c4cn(C)c5ncccc45)cc(N)n3n1)cn2C ... -84.3
3) Nc1nc(-c2ccccc2)c(N=Nc2ccc(Cl)cc2[N+](=O)[O-])s1 ... 98.3
4) CCCCCCCCc1ccc(C(=O)Nc2ccc(C)cc2C(=O)O)cc1C ... 99.9
5) c1ccc(-c2csc(Nc3cccc(Nc4nc(-c5ccccc5)cs4)c3)n2)cc1 ... 47.8
6) CC(=O)OC[C@@]1(C)C2CC[C@]3(C)C(CC=C4C5CC(C)(C)CC[C@]5(C(=O)Nc5cccc(C)c5)CC[C@]43C)[C@@]2(C)C[C@@H](OC(C)=O)[C@@H]1OC(C)=O (stereo partly drawn) ... 49.8
7) COc1c(F)ccc(C(=O)Nc2ccc3nc(NC(=O)C4CCCN(S(=O)(=O)c5ccc(Br)c(F)c5)C4)sc3c2)c1F (stereo not drawn) ... 80.7
8) CCCCSc1nc(Nc2ccc(S(N)(=O)=O)cc2)c(C#N)c(-c2cc(OC)c(OC)c(OC)c2)n1 ... 33.3
9) C#C[C@]1(O)CC[C@H]2[C@@H]3CC=C4c5sc(-c6ccc(O)c(O)c6)nc5CC[C@]4(C)[C@H]3CC[C@@]21C ... -87.7
10) Cc1ccc(C(=O)CSc2nc3ccc(F)cc3c(=O)n2-c2ccc(Cl)cc2)cc1 ... 56.5
11) O=C1Nc2ccc([N+](=O)[O-])cc2C1=Nc1ccccc1 ... 104
12) COc1ccc(NC(=O)[C@@H](N)Cc2ccccc2)cc1C(=O)Nc1cccc(C2CC(=O)c3c(cc(OC)c(OC)c3OC)O2)c1 (stereo partly drawn) ... 65
13) O=C(/C=C/c1ccc(O)c(O)c1)NC1CCOC1O (stereo not drawn) ... 108
14) COc1cc(-c2ccc(/C=N/NC(=O)c3[nH]c4ccc(Br)cc4c3-c3ccccc3)o2)cc(OC)c1OC ... 74.9
15) CN(C)CCn1c2ccccc2c2nc3ccc([N+](=O)[O-])cc3nc21 ... 17.9
16) Cn1cc(-c2cc3nc(-c4cn(C)c5ncc(Br)cc45)cc(N)n3n2)c2ccccc21 ... -72.6
17) Cc1ccc([C@H]2C(C(=O)c3ccc(Cl)cc3)C3(N[C@@H]2c2ccccc2)C(=O)Nc2ccc(Br)cc23)cc1 (stereo partly drawn) ... 44.3
18) O=C(c1ccccc1)c1ccc2nc(-c3cccc(Cl)c3)[nH]c2c1 ... 108
19) COc1ccccc1/C=C/C(=O)c1ccc(OC)c(S(N)(=O)=O)c1 ... 8.83
20) NS(=O)(=O)c1ccc(-n2cc(-c3cccc(NC(=O)c4cc(C(F)(F)F)cc(C(F)(F)F)c4)c3)nn2)cc1 ... 65
21) Cn1cc(-c2cc(N)n3nc(-c4cn(C)c5ccccc45)cc3n2)c2cc(Br)ccc21 ... -74.4
22) CC1(C)CC[C@]2(C(=O)Nc3ccc(Br)cc3)CC[C@]3(C)C(=CCC4[C@@]5(C)C[C@@H](O)[C@H](O)[C@@](C)(CO)C5CC[C@]43C)C2C1 (stereo partly drawn) ... 31.9
23) C=C1CC[C@@H]2[C@]3(C)COC(c4cn(-c5ccccc5)nc4-c4ccccc4)O[C@@H]3CC[C@@]2(C)[C@@H]1C/C=C1/C(=O)OC[C@H]1O (stereo partly drawn) ... -80.4

Values compiled from PubChem BioAssay (NCI).
